Test system: Human immunodeficiency virus 2
Assay Protocol: Antiviral activity against HIV2 ROD infected in human thymidine kinase deficient CEM/TK- cells assessed as reduction in virus-induced giant cell formation incubated for 4 to 5 days
Format: functional, organism-based
Measurement Parameters: Human immunodeficiency virus 2, ISOLATE ROD
Experimental Readout: EC50 (µM)

1. CCCCCCCCCCCC(=O)Oc1ccc(COP(=O)(OCc2ccc(OC(C)=O)cc2)OP(=O)(O)OC[C@@H]2C=C[C@H](n3cc(C)c(=O)[nH]c3=O)O2)cc1.N (stereo partly specified)
2. CCCCCCCCCCCC(=O)Oc1ccc(COP(=O)(OCc2ccc(OC(=O)CCCC)cc2)OP(=O)(O)OC[C@@H]2C=C[C@H](n3cc(C)c(=O)[nH]c3=O)O2)cc1.N (stereo partly specified)
3. CCCCCCCC(=O)Oc1ccc(COP(=O)(OCc2ccc(OC(C)=O)cc2)OP(=O)(O)OC[C@@H]2C=C[C@H](n3cc(C)c(=O)[nH]c3=O)O2)cc1.N (stereo partly specified)
4. CC(=O)Oc1ccc(COP(=O)(OCc2ccc(OC(=O)c3ccc(C)cc3)cc2)OP(=O)(O)OC[C@@H]2C=C[C@H](n3cc(C)c(=O)[nH]c3=O)O2)cc1.N (stereo partly specified)
Ask: In ascending order of recorded EC50, list the molecules from the set above. When ranking, write the labels in the order the request describes.
Reply: 2, 1, 3, 4
(2: 0.13 µM, 1: 1.77 µM, 3: 6.31 µM, 4: 10 µM)

* * *

Assay Protocol: Half life in presence of pig liver esterase assessed as half life for hydrolysis R1 intermediate by RP-18-HPLC method
Type: ADME
Measurement Parameters: isolated protein
Experimental Readout: t1/2 (min)

Examples with their reported t1/2 follow.
Compound	t1/2 / min
CCCCCCCCCC(=O)Oc1ccc(COP(=O)(OCc2ccc(OC(=O)CCCC)cc2)OP(=O)(O)OC[C@H]2O[C@@H](n3cc(C)c(=O)[nH]c3=O)C[C@@H]2N=[N+]=[N-])cc1.N (some centres undefined)	19
CCCCCCCCCCCC(=O)Oc1ccc(COP(=O)(OCc2ccc(OC(=O)CCCC)cc2)OP(=O)(O)OC[C@H]2O[C@@H](n3cc(C)c(=O)[nH]c3=O)C[C@@H]2N=[N+]=[N-])cc1.N (some centres undefined)	38

P. CCCCCCCCCCCC(=O)Oc1ccc(COP(=O)(OCc2ccc(OC(C)=O)cc2)OP(=O)(O)OC[C@H]2O[C@@H](n3cc(C)c(=O)[nH]c3=O)C[C@@H]2N=[N+]=[N-])cc1.N (some centres undefined)
Q. CCCCCCCC(=O)Oc1ccc(COP(=O)(OCc2ccc(OC(=O)CCCC)cc2)OP(=O)(O)OC[C@H]2O[C@@H](n3cc(C)c(=O)[nH]c3=O)C[C@@H]2N=[N+]=[N-])cc1.N (some centres undefined)
Ask: Returns the identifier with the smallest measured t1/2 among P and Q . Write the label of whichever entry you select.
Reply: Q

* * *

System: Human immunodeficiency virus 2
Assay Protocol: Antiviral activity against HIV2 ROD infected in human thymidine kinase deficient CEM/TK- cells assessed as reduction in virus-induced giant cell formation incubated for 4 to 5 days
Type: functional, organism-based
Measurement Parameters: Human immunodeficiency virus 2, ISOLATE ROD
Listing: EC50 of selected compounds

Compound	EC50
CCCCCCCCCC(=O)Oc1ccc(COP(=O)(OCc2ccc(OC(C)=O)cc2)OP(=O)(O)OC[C@@H]2C=C[C@H](n3cc(C)c(=O)[nH]c3=O)O2)cc1.N (stereo partly specified)	2.32 µM
CCCCCCCCCCCC(=O)Oc1ccc(COP(=O)(OCc2ccc(OC(=O)CCCC)cc2)OP(=O)(O)OC[C@H]2O[C@@H](n3cc(C)c(=O)[nH]c3=O)C[C@@H]2N=[N+]=[N-])cc1.N (stereo partly specified)	8.16 µM
CCCCCCCC(=O)Oc1ccc(COP(=O)(OCc2ccc(OC(C)=O)cc2)OP(=O)(O)OC[C@H]2O[C@@H](n3cc(C)c(=O)[nH]c3=O)C[C@@H]2N=[N+]=[N-])cc1.N (stereo partly specified)	> 10 µM
CCCCCCCC(=O)Oc1ccc(COP(=O)(OCc2ccc(OC(=O)CCCC)cc2)OP(=O)(O)OC[C@H]2O[C@@H](n3cc(C)c(=O)[nH]c3=O)C[C@@H]2N=[N+]=[N-])cc1.N (stereo partly specified)	> 10 µM
CCCCCCCCCC(=O)Oc1ccc(COP(=O)(OCc2ccc(OC(=O)CCCCCCCCC)cc2)OP(=O)(O)OC[C@H]2O[C@@H](n3cc(C)c(=O)[nH]c3=O)C[C@@H]2N=[N+]=[N-])cc1	1.3 µM

Ask: # EC50 lookup, item CCCCCCCCCC(=O)Oc1ccc(COP(=O)(OCc2ccc(OC(C)=O)cc2)OP(=O)(O)OC[C@H]2O[C@@H](n3cc(C)c(=O)[nH]c3=O)C[C@@H]2N=[N+]=[N-])cc1.N (stereo partly specified)
Reply: > 10 µM

Ask: # EC50 lookup, item CCCCC(=O)Oc1ccc(COP(=O)(OCc2ccc(OC(=O)CCCC)cc2)OP(=O)(O)OC[C@H]2O[C@@H](n3cc(C)c(=O)[nH]c3=O)C[C@@H]2N=[N+]=[N-])cc1.N
Reply: > 10 µM

* * *

Test system: Human immunodeficiency virus 2
Assay Protocol: Antiviral activity against HIV2 ROD infected in human thymidine kinase deficient CEM/TK- cells assessed as reduction in virus-induced giant cell formation incubated for 4 to 5 days
Assay type: functional, organism-based
Measurement Parameters: Human immunodeficiency virus 2, ISOLATE ROD
pEC50: −log10 of the molar value.
Experimental Readout: pEC50

Examples with their reported pEC50 follow.
Molecule	System Under Test	pEC50
CCCCC(=O)Oc1ccc(COP(=O)(OCc2ccc(OC(=O)c3ccc(C(F)(F)F)cc3)cc2)OP(=O)(O)OC[C@H]2O[C@@H](n3cc(C)c(=O)[nH]c3=O)C[C@@H]2N=[N+]=[N-])cc1.N (some centres undefined)	Human immunodeficiency virus 2	< 5.00
CC(=O)Oc1ccc(COP(=O)(OCc2ccc(OC(=O)c3ccc(C(F)(F)F)cc3)cc2)OP(=O)(O)OC[C@H]2O[C@@H](n3cc(C)c(=O)[nH]c3=O)C[C@@H]2N=[N+]=[N-])cc1.N (some centres undefined)	Human immunodeficiency virus 2	< 5.00
Cc1cn([C@H]2C=C[C@@H](CO)O2)c(=O)[nH]c1=O	Human immunodeficiency virus 2	3.82

Ask: Record lookup: for Human immunodeficiency virus 2, what pEC50 belongs to CCCCC(=O)Oc1ccc(COP(=O)(OCc2ccc(OC(=O)c3ccc(C(F)(F)F)cc3)cc2)OP(=O)(O)OC[C@@H]2C=C[C@H](n3cc(C)c(=O)[nH]c3=O)O2)cc1.N (some centres undefined) ?
Reply: < 5.00
